Biological target: DLL3 endogenously expressed on NCI-H82 cells (UniProt Q9NYJ7)
Sequence (Q9NYJ7 27-618): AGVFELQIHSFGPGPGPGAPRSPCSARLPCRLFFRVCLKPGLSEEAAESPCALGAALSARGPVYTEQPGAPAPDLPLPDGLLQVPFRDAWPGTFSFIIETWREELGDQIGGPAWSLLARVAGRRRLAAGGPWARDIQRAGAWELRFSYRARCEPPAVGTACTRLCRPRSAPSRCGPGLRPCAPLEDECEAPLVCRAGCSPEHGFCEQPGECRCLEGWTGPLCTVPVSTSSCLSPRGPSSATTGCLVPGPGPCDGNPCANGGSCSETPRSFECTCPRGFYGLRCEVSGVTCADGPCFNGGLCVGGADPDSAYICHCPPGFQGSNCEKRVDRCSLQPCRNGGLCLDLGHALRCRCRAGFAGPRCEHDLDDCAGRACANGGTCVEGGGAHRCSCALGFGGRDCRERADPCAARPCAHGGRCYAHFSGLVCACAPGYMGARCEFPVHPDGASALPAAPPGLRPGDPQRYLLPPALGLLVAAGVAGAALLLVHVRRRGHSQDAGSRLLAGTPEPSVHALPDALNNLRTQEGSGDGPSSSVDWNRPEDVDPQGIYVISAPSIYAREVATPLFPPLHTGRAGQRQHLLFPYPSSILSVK
Assay: FACS on NCI-H82 cells; antibody 0.0064 nM
Measured attribute: MFI

Hab015VL4VH5a-hFc (scFv, part only; not given: VL-VH linker and human IgG1 Fc, V domains shown, not shown: another chain or arm of the molecule; a dimerising Fc or GST; small tags and cut ends) VL: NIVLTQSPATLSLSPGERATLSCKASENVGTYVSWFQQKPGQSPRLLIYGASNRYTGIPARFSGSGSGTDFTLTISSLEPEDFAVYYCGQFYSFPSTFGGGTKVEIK VH: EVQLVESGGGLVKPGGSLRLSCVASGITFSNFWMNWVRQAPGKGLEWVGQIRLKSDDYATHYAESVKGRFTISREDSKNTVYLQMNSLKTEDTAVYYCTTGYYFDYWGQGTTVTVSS    135
Hab006VL1VH4-hFc (scFv, part only; not given: VL-VH linker and human IgG1 Fc, V domains shown, not shown: another chain or arm of the molecule; a dimerising Fc or GST; small tags and cut ends) VL: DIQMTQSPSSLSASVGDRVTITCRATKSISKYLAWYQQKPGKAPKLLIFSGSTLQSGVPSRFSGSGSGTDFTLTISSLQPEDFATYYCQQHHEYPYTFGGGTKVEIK VH: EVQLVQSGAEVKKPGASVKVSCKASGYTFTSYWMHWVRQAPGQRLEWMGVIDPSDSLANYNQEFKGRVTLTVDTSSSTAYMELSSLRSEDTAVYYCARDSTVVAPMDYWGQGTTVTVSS    155

Origin of measurements: patent EP4786492A1
